biological target: IKZF2 (Homo sapiens, UniProt Q96SW2+Q9UKS7); test: HEK293 HiBiT in vitro degradation of IKZF2; format: cell-based; set-up: expressed in transfected cells; details: HEK293 HiBiT, 18-24 hr incubation, normalized to DMSO control; read-out: IKZF2 EC50
Sequence (Q9UKS7 1-500 isoform Q9UKS7-2): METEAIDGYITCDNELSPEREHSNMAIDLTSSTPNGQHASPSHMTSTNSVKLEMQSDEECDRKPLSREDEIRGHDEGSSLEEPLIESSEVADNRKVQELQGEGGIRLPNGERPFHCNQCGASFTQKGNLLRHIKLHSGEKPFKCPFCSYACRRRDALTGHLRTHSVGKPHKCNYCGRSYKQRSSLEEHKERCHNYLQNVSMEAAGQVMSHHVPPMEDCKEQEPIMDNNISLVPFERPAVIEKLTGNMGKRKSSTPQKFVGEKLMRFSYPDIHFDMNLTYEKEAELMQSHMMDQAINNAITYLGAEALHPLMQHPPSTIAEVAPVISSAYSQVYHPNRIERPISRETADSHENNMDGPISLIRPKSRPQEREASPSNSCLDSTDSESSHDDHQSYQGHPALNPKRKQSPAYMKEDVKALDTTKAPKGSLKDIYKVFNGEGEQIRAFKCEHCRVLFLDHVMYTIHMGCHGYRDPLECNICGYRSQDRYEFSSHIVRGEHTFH
Sequence (Q96SW2 whole entry): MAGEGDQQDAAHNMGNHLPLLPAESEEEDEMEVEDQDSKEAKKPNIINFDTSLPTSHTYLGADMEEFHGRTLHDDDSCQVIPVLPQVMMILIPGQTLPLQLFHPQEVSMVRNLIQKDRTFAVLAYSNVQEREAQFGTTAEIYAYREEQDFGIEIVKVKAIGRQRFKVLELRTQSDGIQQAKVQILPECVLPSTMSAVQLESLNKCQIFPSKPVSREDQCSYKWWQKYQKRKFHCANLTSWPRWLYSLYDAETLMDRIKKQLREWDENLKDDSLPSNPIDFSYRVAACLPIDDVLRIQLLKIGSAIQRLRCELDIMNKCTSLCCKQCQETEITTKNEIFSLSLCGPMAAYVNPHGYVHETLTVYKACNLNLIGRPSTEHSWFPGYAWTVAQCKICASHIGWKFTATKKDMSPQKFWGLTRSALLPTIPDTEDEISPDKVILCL
Sequence (Q16531 whole entry partner): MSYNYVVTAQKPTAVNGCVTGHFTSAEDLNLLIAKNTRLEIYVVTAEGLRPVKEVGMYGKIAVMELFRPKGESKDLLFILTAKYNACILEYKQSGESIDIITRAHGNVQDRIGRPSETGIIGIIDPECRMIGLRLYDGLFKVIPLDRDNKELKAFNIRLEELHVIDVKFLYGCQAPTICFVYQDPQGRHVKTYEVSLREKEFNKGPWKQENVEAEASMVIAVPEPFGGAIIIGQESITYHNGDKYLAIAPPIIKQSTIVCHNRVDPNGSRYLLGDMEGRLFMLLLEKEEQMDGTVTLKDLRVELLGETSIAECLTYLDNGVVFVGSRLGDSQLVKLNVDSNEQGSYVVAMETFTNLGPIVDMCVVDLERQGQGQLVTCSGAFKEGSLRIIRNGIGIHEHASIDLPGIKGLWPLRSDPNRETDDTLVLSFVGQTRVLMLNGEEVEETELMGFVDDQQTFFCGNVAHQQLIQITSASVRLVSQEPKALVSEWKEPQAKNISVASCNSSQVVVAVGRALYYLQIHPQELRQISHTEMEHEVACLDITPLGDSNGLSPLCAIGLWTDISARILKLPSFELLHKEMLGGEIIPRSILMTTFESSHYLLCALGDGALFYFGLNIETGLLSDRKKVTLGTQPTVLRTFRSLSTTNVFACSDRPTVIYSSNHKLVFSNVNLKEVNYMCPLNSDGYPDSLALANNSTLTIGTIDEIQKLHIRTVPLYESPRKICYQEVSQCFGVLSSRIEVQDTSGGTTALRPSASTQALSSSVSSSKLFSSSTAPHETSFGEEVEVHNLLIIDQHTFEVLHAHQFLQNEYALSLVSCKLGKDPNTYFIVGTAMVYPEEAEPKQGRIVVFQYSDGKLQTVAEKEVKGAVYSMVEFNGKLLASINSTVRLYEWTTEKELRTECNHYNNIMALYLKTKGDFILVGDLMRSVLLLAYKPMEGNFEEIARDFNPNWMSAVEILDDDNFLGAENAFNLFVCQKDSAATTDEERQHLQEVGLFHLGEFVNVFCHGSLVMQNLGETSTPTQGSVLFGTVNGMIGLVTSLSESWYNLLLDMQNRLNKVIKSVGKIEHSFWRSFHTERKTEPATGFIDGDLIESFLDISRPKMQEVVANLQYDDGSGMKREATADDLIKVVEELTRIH
observable: DC50 (nM)

Below, each entry is followed by its recorded DC50 result.
[2H]C1(N[C@H]2CCCC[C@@H]2Cc2ccc3c(c2F)CN(C2CCC(=O)NC2=O)C3=O)CCCC1 (some centres unmarked) | 1
O=C1CCC(N2Cc3cc(C[C@H]4CCCC[C@@H]4NC4CCC5(CCO5)CC4)ccc3C2=O)C(=O)N1 (some centres unmarked) [Example 171] | 26
O=C1CCC(N2Cc3cc(C[C@H]4CCCC[C@@H]4NC4CCCCC4)ccc3C2=O)C(=O)N1 (some centres unmarked) | 3
O=C1CCC(N2Cc3cc(C[C@H]4CCCC[C@@H]4NC4CC5(C4)CC(F)(F)C5)ccc3C2=O)C(=O)N1 (some centres unmarked) | 5

A: O=C1CCC(N2Cc3c(ccc(C[C@H]4CCCC[C@@H]4NC4CCC(F)(F)CC4)c3F)C2=O)C(=O)N1 (some centres unmarked)
B: CC(CC1CC1)N[C@H]1CCCC[C@@H]1Cc1ccc2c(c1)CN(C1CCC(=O)NC1=O)C2=O (single isomer, unassigned) [Example 231]
C: CC(N[C@H]1CCCC[C@@H]1Cc1ccc2c(c1)CN(C1CCC(=O)NC1=O)C2=O)C1CCC1 (some centres unmarked) [Example 219]
Exam item: Let's sort these by DC50, smallest first. Go ahead? Give the labels in the order specified.
Marked response: A, B, C
(A: 1 nM, B: 3 nM, C: 6 nM)

P: O=C1CCC(N2Cc3cc(C[C@H]4CCCC[C@@H]4NC4C5CCC4COC5)ccc3C2=O)C(=O)N1 (some centres unmarked)
Q: Cn1cc(CN[C@H]2CCCC[C@@H]2Cc2ccc3c(c2)CN(C2CCC(=O)NC2=O)C3=O)cn1 (some centres unmarked)
R: CCC(C)N[C@H]1CCCO[C@@H]1Cc1ccc2c(c1F)CN(C1CCC(=O)NC1=O)C2=O (single isomer, unassigned) [Example 292]
S: O=C1CCC(N2Cc3cc(C[C@H]4CCCC[C@@H]4NCc4ccccc4)ccc3C2=O)C(=O)N1 (single isomer, unassigned) [Example 120]
Exam item: Ascending by DC50, please: list the compounds accordingly. # answer = labels listed in requested order
Marked response: R, P, S, Q
(R: 7 nM, P: 20 nM, S: 33 nM, Q: 126 nM)

P: O=C1CCC(N2Cc3cc(C[C@H]4CCCC[C@@H]4NC4CCc5cn[nH]c5C4)ccc3C2=O)C(=O)N1 (single isomer, unassigned) [Example 358]
Q: O=C1CCC(N2Cc3cc(C[C@H]4CCCC[C@@H]4NC4CCCC4)ccc3C2=O)C(=O)N1 (some centres unmarked)
Exam item: Returns: the label, P or Q , whose recorded DC50 is the lower number. Your choice should be expressed through its label.
Marked response: Q

###

target: IKZF2 (Homo sapiens, UniProt Q96SW2+Q9UKS7); experiment: HEK293 HiBiT in vitro degradation of IKZF2; assay type: cell-based; parameters: expressed in transfected cells; settings: HEK293 HiBiT, 18-24 hr incubation, normalized to DMSO control; read-out: IKZF2 EC50
observable: DC50 (nM)

Please review the following examples before continuing.
CC(CC(C)(C)C)N[C@H]1CCCC[C@@H]1Cc1ccc2c(c1)CN(C1CCC(=O)NC1=O)C2=O (stereo partly drawn) [Example 220] | 2
N#Cc1ccc(CN[C@H]2CCCC[C@@H]2Cc2ccc3c(c2)CN(C2CCC(=O)NC2=O)C3=O)cc1 (stereo partly drawn) | 19
O=C1CCC(N2Cc3cc(C[C@H]4CCCC[C@@H]4NC4CCC5(CC4)CC5(F)F)ccc3C2=O)C(=O)N1 (single isomer, unassigned) [Example 271] | 2
CC(=O)N1CCC(N[C@H]2CCCC[C@@H]2Cc2ccc3c(c2)CN(C2CCC(=O)NC2=O)C3=O)CC1 (stereo partly drawn) | 55
O=C1CCC(N2Cc3cc(C[C@H]4CC(CO)CC[C@@H]4NC4CCCCC4)ccc3C2=O)C(=O)N1 (single isomer, unassigned) [Example 382] | 629
CCC(N[C@H]1CCCC[C@@H]1Cc1ccc2c(c1)CN(C1CCC(=O)NC1=O)C2=O)C1CC1 (single isomer, unassigned) [Example 233] | 3
O=C1CCC(N2Cc3c(ccc(C[C@H]4OCCC[C@@H]4NC4CCC(F)(F)CC4)c3F)C2=O)C(=O)N1 (stereo partly drawn) | 10
CC(C)OC1CCC(N[C@H]2CCCC[C@@H]2Cc2ccc3c(c2)CN(C2CCC(=O)NC2=O)C3=O)CC1 (single isomer, unassigned) [Example 167] | 2

I: CC(N[C@H]1CCCC[C@@H]1Cc1ccc2c(c1)CN(C1CCC(=O)NC1=O)C2=O)C1CCCO1 (single isomer, unassigned) [Example 253]
II: CC(N[C@H]1CCCC[C@@H]1Cc1ccc2c(c1)CN(C1CCC(=O)NC1=O)C2=O)C1CCC1 (stereo partly drawn) [Example 218]
III: O=C1CCC(N2Cc3cc(C[C@H]4CCCC[C@@H]4NC4C[C@H]5COC[C@H]5C4)ccc3C2=O)C(=O)N1 (stereo partly drawn)
IV: O=C1CCC(N2Cc3c(ccc(C[C@H]4OCCC[C@@H]4N[C@H]4CC[C@@H](F)CC4)c3F)C2=O)C(=O)N1 (single isomer, unassigned)
Exam item: Place the items in sequence of falling DC50. Rank them, then answer with their labels in that order.
Marked response: III, I, IV, II
(III: 16 nM, I: 9 nM, IV: 4 nM, II: 2 nM)

###

target: IKZF2 (Homo sapiens, UniProt Q96SW2+Q9UKS7); assay: HEK293 HiBiT in vitro degradation of IKZF2; type: cell-based; design: expressed in transfected cells; conditions: HEK293, HEK293 HiBiT; maximum degradation at the highest concentration tested
observable: Dmax (%)

For orientation, consider the following solved cases.
O=C1CCC(N2Cc3cc(C[C@H]4CCCC[C@@H]4NCc4cnccn4)ccc3C2=O)C(=O)N1 (some centres unmarked) | 77
O=C1CCC(N2Cc3c(ccc(C[C@H]4OCCC[C@@H]4N[C@H]4CC[C@H](F)CC4)c3F)C2=O)C(=O)N1 (single isomer, unassigned) | 97
O=C1CCC(N2Cc3c(ccc(C[C@H]4CCCC[C@@H]4NC4CCCC4)c3F)C2=O)C(=O)N1 (some centres unmarked) | 98

a: C=C1CC[C@H](N)[C@@H](Cc2ccc3c(c2)CN(C2CCC(=O)NC2=O)C3=O)C1 (some centres unmarked)
b: O=C1CCC(N2Cc3cc(C[C@H]4CCCC[C@@H]4NCc4c(F)cncc4F)ccc3C2=O)C(=O)N1 (some centres unmarked)
c: O=C1CCC(N2Cc3c(ccc(C[C@H]4OCCC[C@@H]4N[C@H]4CC[C@@H](F)CC4)c3F)C2=O)C(=O)N1 (single isomer, unassigned)
Exam item: Given 3 compounds, produce a descending ranking by Dmax. // format: requested-order list of labels
Marked response: c, a, b

###

target: IKZF1 (Homo sapiens, UniProt Q13422+Q96SW2); construct: expressed in transfected cells; test: HEK293 HiBiT in vitro degradation of IKZF1; format: cell-based; settings: HEK293 HiBiT, 18-24 hr incubation, normalized to DMSO control; read-out: IKZF1 EC50
Sequence (Q13422 whole entry, one chain of several): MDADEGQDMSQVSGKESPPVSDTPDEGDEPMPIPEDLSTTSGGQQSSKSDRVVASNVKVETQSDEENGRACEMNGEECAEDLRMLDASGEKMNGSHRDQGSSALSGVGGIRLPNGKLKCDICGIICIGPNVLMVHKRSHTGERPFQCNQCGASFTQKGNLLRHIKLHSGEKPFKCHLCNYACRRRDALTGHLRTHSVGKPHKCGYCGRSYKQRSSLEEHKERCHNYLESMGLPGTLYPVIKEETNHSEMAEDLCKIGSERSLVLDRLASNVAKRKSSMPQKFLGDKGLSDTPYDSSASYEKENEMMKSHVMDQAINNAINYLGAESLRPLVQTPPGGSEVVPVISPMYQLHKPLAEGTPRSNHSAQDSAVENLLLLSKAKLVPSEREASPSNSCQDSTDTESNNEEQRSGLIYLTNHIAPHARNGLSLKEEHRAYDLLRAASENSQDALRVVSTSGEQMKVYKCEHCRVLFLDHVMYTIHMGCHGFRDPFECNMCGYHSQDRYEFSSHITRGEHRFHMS
observable: DC50 (nM)

a: O=C1CCC(N2Cc3cc(C[C@H]4CCCC[C@@H]4NC4CCC(OC(F)F)CC4)ccc3C2=O)C(=O)N1 (stereo partly shown)
b: O=C1CCC(N2Cc3c(ccc(C[C@H]4OCCC[C@@H]4NC4CCC5(CC4)CC5(F)F)c3F)C2=O)C(=O)N1 (single isomer, unassigned) [Example 365]
c: O=C1CC[C@@H](N2Cc3c(ccc(C[C@H]4OCCC[C@@H]4NC4CCC(F)(F)CC4)c3F)C2=O)C(=O)N1 (single isomer, unassigned)
d: O=C1CCC(N2Cc3cc(C[C@H]4CCC[C@H](O)[C@@H]4NC4CCC(F)(F)CC4)ccc3C2=O)C(=O)N1 (stereo partly shown) [Example 163]
Exam item: sort_by: DC50; order: ascending; scope: items listed above Please list the labels in the order you were asked to rank them.
Marked response: a, b, c, d

A: O=C1CCC(N2Cc3cc(C[C@H]4CCCC[C@@H]4NC4CC5CC5C4)ccc3C2=O)C(=O)N1 (single isomer, unassigned)
B: CC(CC(F)(F)F)N[C@H]1CCCC[C@@H]1Cc1ccc2c(c1)CN(C1CCC(=O)NC1=O)C2=O (single isomer, unassigned) [Example 250]
C: COCC1CCC(N[C@H]2CCCC[C@@H]2Cc2ccc3c(c2)CN(C2CCC(=O)NC2=O)C3=O)CC1 (single isomer, unassigned) [Example 251]
Exam item: Reorder: DC50, max to min. // format: requested-order list of labels
Marked response: C, B, A
(C: 213 nM, B: 117 nM, A: 55 nM)

1: O=C1CCC(N2Cc3c(ccc(C[C@H]4CCCC[C@@H]4NC4CC5CCCC5C4)c3F)C2=O)C(=O)N1 (stereo partly shown)
2: O=C1CCC(N2Cc3cc(C[C@H]4CCCC[C@@H]4NC4CCc5cn[nH]c5C4)ccc3C2=O)C(=O)N1 (stereo partly shown) [Example 165]
Exam item: Sort 1 and 2 by DC50 descending and give the first. Refer to your chosen item by its label in the answer.
Marked response: 2
(2: 270 nM, 1: 58 nM)
